normalized growth by entry:
- Procedure details: chemical genetic growth profiling, strain panel (AID 1159580);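 further: tested at 20 µM; growth read once vehicle control cultures reached saturation at 30 °C; 1 = growth at the plate median or of vehicle wells; lower values mean less growth of the strain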
- Experimental parameters: S. cerevisiae deletion strains, growth OD, locus YNL307C, strain MCK1, active compounds read low
About 2,000 (36%) of roughly 5,500 compounds were called active. Inconclusive results (about 18%) are left out. The list shows a part of the results.
Response field accepts a number only; no unit should be typed.

Compound: CSCCC(NC=O)C(=O)NC(C)C(=O)O (stereo unspecified)
Number: 0.989

Compound: O=C(O)c1ccccc1Nc1cccc(C(F)(F)F)c1
Number: 0.695

Compound: Oc1c(I)cc(I)c2cccnc12
Number: 0.115

Compound: O=C(O)CF
Number: 0.954

Compound: CC(=O)O[C@@H]1C[C@@]2(C)[C@H](c3ccoc3)C[C@H]3O[C@]32[C@]2(C)C(=O)C(O)=C3C(C)(C)C(=O)C=C[C@]3(C)C12 (stereo partly specified)
Number: 0.571

Query: Fill in the blank: the reported normalized growth of CC1(C)C(C(Cl)Cl)C2(Cl)C(Cl)C(Cl)C1(Cl)C2(Cl)Cl (stereo unspecified) is ____.
Result: 0.778

* * *

- Procedure details: chemical genetic growth profiling, strain panel (AID 1159580)
- Experimental parameters: S. cerevisiae deletion strains, growth OD, locus YDL101C, strain DUN1
Hit rate of the full screen: of about 5,500 compounds, about 2,000 (36%) were called active. Another 18% or so got no clear call; they are omitted. No stated cut-off is given here; in the data, active means normalized growth mostly below about 0.91 (no sharp cut-off); inconclusive means no clear call, values can overlap the other calls; inactive means mostly above about 0.92. This is one part of the list.
Hello, when you answer, please use one of the following outcomes: 1 = active, -1 = inactive

Field: example entries. Status: answers known.
Smiles structure: CC(=O)Nc1ccc(S(=O)(=O)Nc2ccc([N+](=O)[O-])cc2)cc1
Class label: -1
--
Smiles structure: CC(=O)Nc1ccc(/C=C/[N+](=O)[O-])cc1
Class label: -1
--
Smiles structure: C=CCOc1ccc(/C=C/[N+](=O)[O-])cc1
Class label: 1

Consider the record given below.
Query: Short answer needed: outcome of this test for `CSc1ccc(/C=C/[N+](=O)[O-])cc1` ?
Result: 1

* * *

- Procedure details: chemical genetic growth profiling, strain panel (AID 1159580)
- Experimental parameters: S. cerevisiae deletion strains, growth OD, locus YPL153C, strain RAD53, active compounds read low
The whole screen tested about 5,500 compounds, of which about 2,000 (36%) were called active. Another 18% or so got no clear call; they are omitted. This is one part of the list.
Note to self: use fulfilled only for normalized growth readings below 0.9; a reading exactly at 0.9 still gets not fulfilled.

Smiles structure: C=CCOc1ccc(/C=C/[N+](=O)[O-])cc1
Class label: fulfilled
--
Smiles structure: O=C(Nc1ccc(C(F)(F)F)cc1)N1CCN(c2ccnc3cc(Cl)ccc23)CC1
Class label: not fulfilled
--
Smiles structure: CC(=O)Nc1ccc(/C=C/[N+](=O)[O-])cc1
Class label: fulfilled

Query: For `O=C(c1ccc2ccccc2c1)N1CCN(c2ccnc3cc(Cl)ccc23)CC1` , is the recorded normalized growth below the cut-off of 0.9?
Result: not fulfilled

* * *

- Procedure details: chemical genetic growth profiling, strain panel (AID 1159580);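 further: tested at 20 µM; growth read once vehicle control cultures reached saturation at 30 °C; 1 = growth at the plate median or of vehicle wells; lower values mean less growth of the strain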
- Experimental parameters: S. cerevisiae deletion strains, growth OD, locus YPR025C, strain CCL1, active compounds read low
Screen size: about 5,500 compounds; about 2,000 (36%) were called active. Another 18% or so got no clear call; they are omitted. The list shows a part of the results.
normalized growth by entry:
Response field accepts a number only; no unit should be typed.

Worked cases, normalized growth given:
Smiles structure: N#CC(C#N)=C/C=C(/Sc1ccc(F)c(Cl)c1)c1ccc(Cl)cc1
normalized growth: 0.956
//
Smiles structure: COC(=O)C1=C(C)NC(C)=C(C(=O)OC)C1c1ccc(Cl)cc1Cl
normalized growth: 0.979
//
Smiles structure: Fc1cccc(Cl)c1CSc1nncn1-c1ccc(OCc2ccccc2)cc1
normalized growth: 1.01
//
Smiles structure: COc1ccc(C(=O)CSC2=NCCc3ccccc32)cc1
normalized growth: 0.97
//
Smiles structure: CC(=O)Nc1ccc(/C=C/[N+](=O)[O-])cc1
normalized growth: 0.982
//
Smiles structure: O=C(NCc1ccncc1)c1ccc(-n2cccn2)cc1
normalized growth: 0.987

Query: Fill in the blank: the reported normalized growth of `O=S(=O)(N/N=C\c1ccc(Cl)cc1)c1ccc(-c2ccccn2)s1` is ____.
Result: 0.982

Query: Fill in the blank: the reported normalized growth of `Cc1c2c(=O)[nH]ncc2c(-c2ccccc2)n1-c1ccc([N+](=O)[O-])cc1` is ____.
Result: 0.988

Query: Fill in the blank: the reported normalized growth of `O=C(Nc1ccc(N2CCOCC2)cc1)c1ccc(-n2cccn2)cc1` is ____.
Result: 0.982

Query: Fill in the blank: the reported normalized growth of `CSc1cc(-c2ccncc2)nc(-c2cccs2)c1` is ____.
Result: 0.963

Query: Fill in the blank: the reported normalized growth of `Cc1ccc(S(=O)(=O)CCSC2=CC(=O)CC(C)(C)S2)cc1` is ____.
Result: 1

* * *

normalized growth by entry:
- Procedure details: chemical genetic growth profiling, strain panel (AID 1159580);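 further: tested at 20 µM; growth read once vehicle control cultures reached saturation at 30 °C; 1 = growth at the plate median or of vehicle wells; lower values mean less growth of the strain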
- Experimental parameters: S. cerevisiae deletion strains, growth OD, locus YMR231W, strain pep5, active compounds read low
In all, about 5,500 compounds went through this assay and about 2,000 (36%) were called active. Not shown: some 18% with an inconclusive outcome. This is one part of the list.
Response field accepts a number only; no unit should be typed.

Worked cases, normalized growth given:
Compound: CCCC(C)C1(CC)C(=O)NC(=O)NC1=O (centres undefined)
Number: 1
--
Compound: NCC(O)c1ccc(O)cc1 (centres undefined)
Number: 0.995
--
Compound: Cc1ccc2c(Cl)cc(Cl)c(O)c2n1
Number: 1.02
--
Compound: NC[C@H](O)c1ccc(O)c(O)c1
Number: 0.995
--
Compound: CS(=O)(=O)CCCCN=C=S
Number: 0.522

Query: Fill in the blank: the reported normalized growth of CC(=O)O[C@@H]1C[C@@]2(C)[C@H](c3ccoc3)C[C@H]3O[C@]32[C@]2(C)C(=O)C(O)=C3C(C)(C)C(=O)C=C[C@]3(C)C12 (some centres undefined) is ____.
Result: 0.927

Query: Fill in the blank: the reported normalized growth of `NCCCC[C@H](N[C@@H](CCc1ccccc1)C(=O)O)C(=O)N1CCC[C@H]1C(=O)O` is ____.
Result: 1.02

Query: Fill in the blank: the reported normalized growth of CC1(C)C(=O)C=C[C@@]2(C)C1=C(O)C(=O)[C@]1(C)C2CC[C@@]2(C)[C@H](c3ccoc3)C[C@H]3O[C@]321 (some centres undefined) is ____.
Result: 0.931

Query: Fill in the blank: the reported normalized growth of `CC(=O)Oc1ccc(Cl)c2cccnc12` is ____.
Result: 0.0641

Query: Fill in the blank: the reported normalized growth of C=CC(C1=CC(=O)C=CC1=O)c1ccccc1 (centres undefined) is ____.
Result: 0.986

Query: Fill in the blank: the reported normalized growth of `O=C(O)/C=C/C=C/c1ccccc1` is ____.
Result: 0.835

Query: Fill in the blank: the reported normalized growth of `CC(=O)/C(=C\c1ccccc1)CC(=O)O` is ____.
Result: 0.995

Query: Fill in the blank: the reported normalized growth of `Oc1c(I)cc(I)c2cccnc12` is ____.
Result: 0.105

* * *

- Procedure details: chemical genetic growth profiling, strain panel (AID 1159580);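 further: tested at 20 µM; growth read once vehicle control cultures reached saturation at 30 °C; 1 = growth at the plate median or of vehicle wells; lower values mean less growth of the strain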
- Experimental parameters: S. cerevisiae deletion strains, growth OD, locus YML016C, strain PPZ1
Out of some 5,500 compounds screened, about 2,000 (36%) were called active. Inconclusive results (about 18%) are left out. Cut-off read from the data, not from the text of the source: active = normalized growth mostly below about 0.91 (no sharp cut-off); inconclusive = no clear call, values can overlap the other calls; inactive = mostly above about 0.92. The list shows a part of the results.
Hello, when you answer, please use one of the following outcomes: YES for active, NO for inactive

Compound: COc1ccc(C(Cl)=C(c2ccc(OC)cc2)c2ccc(OC)cc2)cc1
Class label: NO
--
Compound: CC(=O)OCC1(C)CCC2(C)CCC3(C)C4=CCc5c(cc(OC(C)=O)c(OC(C)=O)c5C)C4(C)CCC3(C)C2C1 (stereo unspecified)
Class label: NO
--
Compound: c1ccc2c3c([nH]c2c1)CNCC3
Class label: NO
--
Compound: CC/C(=C(\c1ccccc1)c1ccc(OCCN(C)C)cc1)c1ccccc1
Class label: YES
--
Compound: CC(C)(C)NC[C@@H](O)COc1nsnc1N1CCOCC1
Class label: NO
--
Compound: COC(C)(C)CCC[C@H](C)C/C=C/C(C)=C/C(=O)OC(C)C
Class label: NO
--
Compound: CC(C)NCC(O)c1ccc2ccccc2c1 (stereo unspecified)
Class label: NO
--
Compound: NCCCC[C@H](N[C@@H](CCc1ccccc1)C(=O)O)C(=O)N1CCC[C@H]1C(=O)O
Class label: NO
--
Compound: CCN(CC)CCOc1ccc2c(c1)C(=O)c1cc(OCCN(CC)CC)ccc1-2
Class label: NO
--
Compound: O[N+]1=CC=CCC1=S.On1ccccc1=S.[Zn]
Class label: YES

Consider the record given below.
Query: Short answer needed: outcome of this test for `C=C(C)[C@H]1CC=C(C(=O)O)CC1` ?
Result: NO
